In this section, each of the compounds is paired with its reported growth inhibition.
Assay: NCI Yeast Anticancer Drug Screen. Data for the mec2-1 strain (AID 157)
Settings: S. cerevisiae mec2-1 strain, at 5.0 µM (retest, dose inferred, filed as 0.5), stronger effect = higher value
The panel holds about 79,000 compounds, 15% with a hit somewhere; the sample as a whole holds those more often. The source made the active and inactive calls. No stated cut-off is given here; in the data, active means growth inhibition above about 70%; inactive means the rest.

Completed entries (count: 10):
- compound: "CCCCCCCCCCCCCCCC1=NCCN1C"
  measValue: "9% (inactive)"
- compound: "O/N=C\\c1ccc(-c2ccccc2)cc1"
  measValue: "-13% (inactive)"
- compound: "CC1(C)CCC2(CC1)CC(=O)OC(=O)C2"
  measValue: "-50% (inactive)"
- compound: "O=C(O)c1nc2cc(C(F)(F)F)ccc2nc1Nc1ccc(Cl)c(Cl)c1"
  measValue: "19% (inactive)"
- compound: "O=[N+]([O-])c1ccc(NNS(=O)(=O)c2ccccc2)c([N+](=O)[O-])c1"
  measValue: "-13% (inactive)"
- compound: "CCCCCN=C(C)C(C)=NCCCCC"
  measValue: "3% (inactive)"
- compound: "O=C(O)C(O)C(O)C(OC1OC(CO)C(O)C(O)C1O)C(O)CO.[Br][Pt].[NH-]C1CCCCC1[NH-] (centres undefined)"
  measValue: "65% (inactive)"
- compound: "CSc1ccc(NC(=S)SC(C)C)cc1Cl"
  measValue: "1% (inactive)"
- compound: "COc1cc(-c2nn3c(=O)n(-c4ccc(Cl)cc4)c(=O)nc3s2)cc(OC)c1OC"
  measValue: "0% (inactive)"
- compound: "O=C(O)c1ccccc1-c1c2cc([N+](=O)[O-])c(=O)c(Br)c-2oc2c(Br)c(O)c([N+](=O)[O-])cc12"
  measValue: "29% (inactive)"

Req: Give its growth inhibition value. Item: CCCCNc1ccc(-c2c(N)nc(N)nc2CC)cc1[N+](=O)[O-]
Resp: -16% (inactive)

Req: Now the same for NC(=S)N1N=C2c3ccccc3CC[C@H]2[C@@H]1c1cccs1
Resp: -4% (inactive)

Req: Now the same for COc1ccc2c(c1)C(=O)C[C@@H]1[C@](C)(C#N)CCC[C@]21C
Resp: 3% (inactive)

Req: Now the same for COc1ccc(C2=C(Cl)C(=O)N(c3ccc(OC)cc3)C(=O)C2(Cl)Cl)cc1
Resp: -10% (inactive)

====

In this section, each of the compounds is paired with its reported growth inhibition.
Test: NCI Yeast Anticancer Drug Screen. Data for the bub3 strain (AID 167)
Details: S. cerevisiae bub3 mutant strain, at 50.0 µM (retest, dose inferred, filed as 5.0), stronger effect = higher value
Compounds without any hit were thinned out: in the full panel of roughly 79,000, 15% have a hit.
Numbers only here, please. The scale is %.

Req: Give its growth inhibition value. Item: CC(C)c1ccc(C2C3=C(N=C4SCC(=O)N42)C(=O)c2ccccc23)cc1 (stereo not given)
Resp: 41

Req: Now the same for O=c1ccn(C2OC(COC(c3ccccc3)(c3ccccc3)c3ccccc3)C(O)C2O)c(=O)[nH]1 (stereo not given)
Resp: 98

Req: Now the same for N=C(N)c1ccc(Oc2ccc(Oc3ccc(C(=N)N)cc3)cc2)cc1
Resp: 79

Req: Now the same for COc1ccc(CC2=CC(=O)C(=O)C=C2C)cc1
Resp: 21

Req: Now the same for CCOc1nc(N)nc(C)c1N=Nc1ccc(Cl)cc1
Resp: 19
